From: patent US20240368150A1

// primary human T-cells EC50 records
Answers are plain numbers, in nM.

# example entries with known answers
N[C@H]1CS(=O)(=O)c2cc(F)c(-c3nnc(CC4CC(F)(F)C4)o3)cc2N(Cc2ccc(Cl)cc2)C1=O [Example 77] ... 341
CC1(Nc2nnc(-c3ccc4c(c3)N(Cc3ccc(Cl)cc3)C(=O)[C@@H](N)CS4(=O)=O)o2)CC(F)(F)C1 [Example 406] ... 2510

Consider the additional compound presented here.
Task item: Entry CC(C)(C)NC(=O)c1nc(-c2ccc3c(c2)N(Cc2ccc(OC(F)(F)F)cc2)C(=O)[C@@H](N)CS3(=O)=O)no1 [Example 355] has what EC50?
Reply: 6050

* * *

Could you please report measured Emax for the items listed next?
- Test system: primary human T-cells
- Experiment: Proliferation assay after 5 days (CellTiter-Glo, CD3 stimulation; PBS counter screen)
- Type: cell-based
- Details: Homo sapiens, T-cell, 120 h, CD3 stimulation, 5 days; normalized to reference compound A1 as stimulator control = 100%, DMSO neutral control; read-out: Emax proliferation (% activation)
Numbers only, in %.

CN1CC(C)(c2nnc(-c3cc4c(cc3F)S(=O)(=O)C[C@H](N)C(=O)N4Cc3ccc(Cl)cc3)o2)C1 ... 72
CC(C)(C)c1nnc(-c2cc3c(cc2F)S(=O)(=O)C[C@H](N)C(=O)N3Cc2cncc(Cc3ccc(Cl)cc3)c2)o1 ... 72
N[C@H]1CS(=O)(=O)c2cc(F)c(-c3nnc(C(F)(F)C(F)(F)F)o3)cc2N(Cc2ccc(Cl)cc2)C1=O ... 13

Batch lookup, Emax per entry.
1. N[C@H]1CS(=O)(=O)c2cc(F)c(-c3nc(CC(F)(F)F)no3)cc2N(Cc2ccc(Cl)cc2)C1=O
2. N[C@H]1CS(=O)(=O)c2ccc(-c3nnc(-c4ccccc4)o3)cc2N(Cc2ccc(Cl)cc2)C1=O
3. CC(C)(C)c1nnc(-c2ccc3c(c2)N(Cc2ccc(OC4CCCC4)cc2)C(=O)[C@@H](N)CS3(=O)=O)o1
4. COC(=O)N1CC(c2nnc(-c3cc4c(cc3F)S(=O)(=O)C[C@H](N)C(=O)N4Cc3ccc(Cl)cc3)o2)C2(CC2)C1 (some centres unmarked)
5. CC(C)(C)n1nnc(-c2cc3c(cc2F)S(=O)(=O)C[C@H](N)C(=O)N3Cc2ccc(F)cc2)n1
6. CC(C)(C)c1nnc(-c2cc3c(cc2F)[S+]([O-])C[C@H](N)C(=O)N3Cc2ccc(Cl)cc2)o1 (some centres unmarked)
7. CCc1cn(-c2cc3c(cc2F)SC[C@H](N)C(=O)N3Cc2ccc(Cl)cc2)nn1
8. COC(C)(C)c1nnc(-c2ccc3c(c2)N(Cc2ccc(Cl)cc2)C(=O)[C@@H](N)CS3(=O)=O)o1

Reply:
1. 112
2. 52
3. 110
4. 68
5. 101
6. 94
7. 33
8. 103

Batch lookup, Emax per entry.
1. CN(C)CCC(C)(C)c1nnc(-c2cc3c(cc2F)S(=O)(=O)C[C@H](N)C(=O)N3Cc2ccc(Cl)cc2)o1
2. COC(F)(c1nc(-c2cc3c(cc2F)S(=O)(=O)C[C@H](N)C(=O)N3Cc2ccccc2)no1)C(F)(F)F (some centres unmarked)
3. N[C@H]1CS(=O)(=O)c2cc(F)c(-c3noc(N4[C@@H]5CC[C@H]4COC5)n3)cc2N(Cc2ccc(Cl)cc2)C1=O

Reply:
1. 70
2. 107
3. 88

* * *

- System: primary human T-cells
Please use true (1) for EC50 under 100 nM and false (0) for everything else, ties included.

CC(C)(C)c1nnc(-c2cc3c(cc2F)S(=O)(=O)C[C@H](N)C(=O)N3Cc2ccc(F)cc2)o1 [Example 231] ... false (0)
N[C@H]1CS(=O)(=O)c2cc(F)c(-c3nnc(C4CN(CCO)CC(F)(F)C4)o3)cc2N(Cc2ccc(Cl)cc2)C1=O (stereo partly shown) [Example 152] ... false (0)
CC(C)Cc1nnc(-c2cc3c(cc2F)S(=O)(=O)C[C@H](N)C(=O)N3Cc2ccc(Cl)cc2)o1 [Example 101] ... true (1)
N[C@H]1CS(=O)(=O)c2ccc(-c3nnc(-c4ccccc4)o3)cc2N(Cc2ccc(Cl)cc2)C1=O [Example 374] ... false (0)
CC(C)(C)c1nnc(-c2cc3c(cc2F)S(=O)(=O)C[C@H](N)C(=O)N3Cc2ccc(Cl)c(F)c2)o1 [Example 245] ... true (1)
CC[C@H](NC)C(=O)N[C@H]1CS(=O)(=O)c2cc(F)c(-c3nnc(C(C)(C)C)o3)cc2N(Cc2ccc(Cl)cc2)C1=O [Example 263] ... false (0)

# next molecule below
Task item: Confirm or reject: EC50 of N[C@H]1CS(=O)(=O)c2cc(F)c(-c3nnc(C4CCC(F)(F)C4)o3)cc2N(Cc2ccc(Cl)cc2)C1=O (stereo partly shown) [Example 75] lies strictly below 100 nM
Reply: false (0)

* * *

- Tested on: primary human T-cells
- Experiment: Proliferation assay after 5 days (CellTiter-Glo, CD3 stimulation; PBS counter screen)
- Type: cell-based
- Details: Homo sapiens, T-cell, 120 h, primary human T-cells, CD3 stimulation, CellTiter-Glo after 5 days; EC50 of fitted sigmoidal curve; read-out: Tcell Proliferation CD3 EC50
Recorded Metric: EC50

Batch lookup, EC50 per entry.
1. NC(c1nnc(-c2cc3c(cc2F)S(=O)(=O)C[C@H](N)C(=O)N3Cc2ccc(OC(F)(F)F)cc2)o1)C(F)(F)F (some centres unmarked)
2. N[C@H]1CS(=O)(=O)c2ccc(-c3nnc(CC(F)(F)F)o3)c(F)c2N(Cc2ccc(Cl)cc2)C1=O
3. CC(C)(C)c1nc(-c2cc3c(cc2F)S(=O)(=O)C[C@H](N)C(=O)N3Cc2ccc(OC3CCCC3)cc2)no1
4. CC(C)c1nnc(-c2cc3c(cc2F)S(=O)(=O)C[C@H](N)C(=O)N3Cc2ccc(Cl)cc2)o1
5. CC(C)(C)c1nc(-c2cc3c(cc2F)S(=O)(=O)C[C@H](N)C(=O)N3Cc2ccc(OCC3CCOCC3)cc2)no1
6. CC(C)(C)c1nnc(-c2cc3c(cc2F)S(=O)(=O)C[C@H](N)C(=O)N3Cc2ccc(OC(F)F)cc2)o1
7. CC(O)(CNc1nnc(-c2cc3c(cc2F)S(=O)(=O)C[C@H](N)C(=O)N3Cc2ccc(Cl)cc2)o1)C(F)(F)F (some centres unmarked)

Reply:
684 nM
2110 nM
208 nM
226 nM
7240 nM
< 162 nM
1060 nM

Batch lookup, EC50 per entry.
1. COC(=O)N1CC(c2nnc(-c3cc4c(cc3F)S(=O)(=O)C[C@H](N)C(=O)N4Cc3ccc(Cl)cc3)o2)CC(F)(F)C1 (some centres unmarked)
2. CC(N)(c1nnc(-c2cc3c(cc2F)S(=O)(=O)C[C@H](N)C(=O)N3Cc2ccc(Cl)cc2)o1)C(F)(F)F (some centres unmarked)
3. N[C@H]1CS(=O)(=O)c2cc(F)c(-c3nnc(NC45CC(F)(C4)C5)o3)cc2N(Cc2ccc(Cl)cc2)C1=O
4. CC(C)(C)c1nnc(-c2cc3c(cc2F)S(=O)(=O)C[C@H](N)C(=O)N3Cc2ccccn2)o1
5. N[C@H]1CS(=O)(=O)c2cc(F)c(-c3noc(C4(CO)CCCO4)n3)cc2N(Cc2ccc(OC(F)(F)F)cc2)C1=O (some centres unmarked)

Reply:
["51.4 nM", "181 nM", "768 nM", "> 20000 nM", "814 nM"]

Batch lookup, EC50 per entry.
1. N[C@H]1CS(=O)(=O)c2cc(F)c(-c3nnc(CCF)o3)cc2N(Cc2ccc(Cl)cc2)C1=O
2. N[C@H]1CS(=O)(=O)c2cc(F)c(-c3nnc(CCCC(F)(F)F)o3)cc2N(Cc2ccc(Cl)cc2)C1=O

Reply:
> 20000 nM
173 nM

* * *

- Tested on: primary human T-cells
- Experiment: Proliferation assay after 5 days (CellTiter-Glo, CD3 stimulation; PBS counter screen)
- Format: cell-based
- Details: Homo sapiens, T-cell, 120 h, primary human T-cells, CD3 stimulation, CellTiter-Glo after 5 days; EC50 of fitted sigmoidal curve; read-out: Tcell Proliferation CD3 EC50
Recorded Metric: EC50
Answer by giving the amount and then stating its unit.

CN[C@@H](C)C(=O)N[C@H]1CS(=O)(=O)c2cc(F)c(-c3nnc(C(C)(C)C)o3)cc2N(Cc2ccc(Cl)cc2)C1=O [Example 268] ... 249 nM
NC(CNc1nc(-c2cc3c(cc2F)S(=O)(=O)C[C@H](N)C(=O)N3Cc2ccc(Cl)cc2)no1)C(F)(F)F (stereo partly shown) [Example 202] ... 1430 nM
Cc1ccccc1-c1nnc(-c2cc3c(cc2F)S(=O)(=O)C[C@H](N)C(=O)N3Cc2ccc(Cl)cc2)o1 [Example 98] ... 64.6 nM

Consider the additional compound presented here.
Task item: Entry CCc1nnn(-c2cc3c(cc2F)S(=O)(=O)C[C@H](N)C(=O)N3Cc2ccc(Cl)cc2)n1 [Example 509] has what EC50?
Reply: 158 nM
